B1: mRNA-splicing (parent)
chain: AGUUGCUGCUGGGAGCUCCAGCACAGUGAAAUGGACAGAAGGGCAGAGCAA

variants of: B1; assay: exon inclusion enrichment index; higher = more inclusion; WT1 exon 5 minigene, HEK293
Returns criterion met if the recorded exon inclusion enrichment index is greater than or equal to 0.5, and criterion not met otherwise.

Consider the following illustrative entries.
1) AGUUACCACCGGGAGCUCCAAGACAGUGAAAUGGACAGAAGGGCAGAGCAA [G5A U7C G8A U10C G21A C22G] = criterion met
2) AGUUAGGGAUGGGAGCCACAGCACAGUGAAAUGGACAGAAGGGCAGAGCAA [G5A C6G U7G C9A U17C C18A] = criterion not met
3) AGUUAGGGAUGGGAGCUCCAGCACAGUGACAUGGACAGAAGGGCAGAGCAA [G5A C6G U7G C9A A30C] = criterion not met
4) AGUUCGCGCCGGGAGCUCCAGCACAGUGAAAUGGACAGAAGGGUUGAGCAA [G5C C6G U7C U10C C44U A45U] = criterion met

Form field: exon inclusion enrichment index at least 0.5? Entry: AGUUCGCGCCGUCAGCUCCAGCACAGUGAAAUGGACAGAAGGGCAGAGCAA [G5C C6G U7C U10C G12U G13C]
criterion met

Please tell me: is the variant AGUUCGCGCCGGGAGCUCCAGCACAGUGAAAUGGAGUGAAGGGCAGAGCAA [G5C C6G U7C U10C C36G A37U] at or over 0.5 in terms of exon inclusion enrichment index?
criterion met

Could you verify whether the entry AGAAAGGGAUGGGAGCUCCAGCACAGUGAAAUGGACAGAAGGGCAGAGCAA [U3A U4A G5A C6G U7G C9A] shows exon inclusion enrichment index of no less than 0.5?
criterion not met

Quick check: does AGUUCUUCUCGGGAGCUCCAGCACAGUGAAAUGGACAGAAUUGCAGAGCAA [G5C C6U G8C C9U U10C G41U G42U] have exon inclusion enrichment index greater than or equal to 0.5?
criterion met

Exam item: decide whether the reported exon inclusion enrichment index for AGUUCGCGCCGGGAGCUCGCGCACAGUGAAAUGGACAGAAGGGCAGAGCAA [G5C C6G U7C U10C C19G A20C] is at least 0.5.
criterion met

Is exon inclusion enrichment index at least 0.5? Consider AGUUCUUCUCGGGAGCUCCAGCACAGUGAAAUGGACAGAUAGGCAGAGCAA [G5C C6U G8C C9U U10C A40U G41A]
criterion not met

Is reported exon inclusion enrichment index greater than or equal to 0.5 here: AGUUGCUGCUGGGAGCUCCAGCACAGUGAAAUGGACAGUUGGGCAGAGCAA [A39U A40U]
criterion not met

Form field: exon inclusion enrichment index at least 0.5? Entry: AGUUCGCGCCGGGAGCUCCAGCACAGUGAAAUGGACAGUUGGGCAGAGCAA [G5C C6G U7C U10C A39U A40U]
criterion met

Answer whether exon inclusion enrichment index of AGUUGAAGAAGGGAGUUCCAGCACAGUGAAAUGGACAGAAGGGCAGAGCAA [C6A U7A C9A U10A C16U] is greater than or equal to 0.5.
criterion not met

Is the recorded value of exon inclusion enrichment index equal to or greater than 0.5 for this variant? AGUUCUUUCCGGGAGCUCCAGCACAGUGAAAUGGACAGAAGGGCAGAGCAA [G5C C6U G8U U10C]
criterion met

For this variant, is measured exon inclusion enrichment index 0.5 or higher? AGUUGCUGCUGGGAGCUCCAGCACAGUGAAGAGGACAGAAGGGCAGAGCAA [A31G U32A]
criterion met

Where these numbers come from: the RNAGym collection of RNA variant scans (doi:10.1101/gr.219683.116)
